Cited source: patent US11666558B2

- EXPERIMENT_SUMMARY: Plasma concentrations and pharmacokinetic parameters after topical ocular, subcutaneous and intravitreal administration
- Type: in vivo, New Zealand White rabbits
- TEST_CONTEXT: New Zealand White, rabbit, plasma, other: intravitreal, 2.5 mg/eye, intravitreal 2.5 mg/eye (~1.54 mg/kg), suspension; 24.0 hr; read-out: plasma Conc., individual rabbit
METRIC: concentration at 24 h (ng/mL)
The reply should contain only the number, in ng/mL.

Challenge: Quick check: concentration at 24 h of COC(=O)N[C@@H](Cc1ccccc1)C(=O)N[C@@H](Cc1ccc(NS(=O)(=O)O)cc1)c1csc(-c2cccs2)n1 [Compound 1 free acid] ?
Response given: 9.96
